Target: Scrib PDZ-1 domain (Homo sapiens)
Construct: ROC curves of DomPep prediction for the three Scrib PDZ-1/2/3 domains
Assay: In-solution fluorescence polarization binding of peptides to Scrib PDZ1
Details: Kd value of 100 µM applied as binding cutoff, NB without definition, read-out: Kd (µM) PDZ1
Residues, ends and D or L forms follow the SMILES beside them.
measurement-type: Kd (µM)
Respond with the bare value in µM.

Scrib PDZ-1 domain (Homo sapiens) assay, compound CSCC[C@H](N)C(=O)N[C@@H](CCC(=O)O)C(=O)N[C@@H](CCCNC(=N)N)C(=O)N[C@@H](CC(C)C)C(=O)N[C@@H](CCCNC(=N)N)C(=O)N[C@H](C(=O)N[C@@H](CCC(=O)O)C(=O)N[C@H](C(=O)N[C@@H](CC(=O)O)C(=O)N[C@H](C(=O)O)C(C)C)[C@@H](C)O)C(C)C [ARHGEF16] (H-MERLRVETDV-OH) , recorded Kd = 27.5

Scrib PDZ-1 domain (Homo sapiens) assay, compound CC(C)C[C@H](NC(=O)[C@H](CCC(=O)O)NC(=O)[C@@H](NC(=O)[C@H](CC(=O)O)NC(=O)[C@H](Cc1ccc(O)cc1)NC(=O)[C@H](CCCNC(=N)N)NC(=O)[C@H](C)NC(=O)[C@H](CO)NC(=O)[C@@H](N)CCC(N)=O)[C@@H](C)O)C(=O)O [ZO2] (H-QSARYDTEL-OH) , recorded Kd = 16

Scrib PDZ-1 domain (Homo sapiens) assay, compound CC(C)C[C@H](NC(=O)[C@H](CC(=O)O)NC(=O)[C@@H](NC(=O)[C@H](CO)NC(=O)[C@H](C)NC(=O)[C@H](CCCCN)NC(=O)[C@H](C)NC(=O)[C@@H](NC(=O)[C@H](CC(C)C)NC(=O)[C@@H](N)C(C)C)[C@@H](C)O)[C@@H](C)O)C(=O)O [LPP] (H-VLTAKASTDL-OH) , recorded Kd = 24.2

Scrib PDZ-1 domain (Homo sapiens) assay, compound CC(C)C[C@H](NC(=O)[C@H](Cc1ccc(O)cc1)NC(=O)[C@H](CO)NC(=O)CNC(=O)[C@H](CO)NC(=O)[C@@H](N)Cc1c[nH]cn1)C(=O)N[C@H](C(=O)N[C@H](C(=O)N[C@@H](CO)C(=O)N[C@H](C(=O)O)C(C)C)[C@@H](C)O)C(C)C [APC] (H-HSGSYLVTSV-OH) , recorded Kd = 12.3

* * *

Answer each item with its documented Kd.
Biological target: Scrib PDZ-1 domain (Homo sapiens, UniProt Q14160)
Construct: ROC curves of DomPep prediction for the three Scrib PDZ-1/2/3 domains
Sequence (Q14160 728-815 limits assumed): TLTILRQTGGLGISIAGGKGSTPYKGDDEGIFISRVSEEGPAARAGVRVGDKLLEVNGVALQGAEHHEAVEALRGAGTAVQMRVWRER
Test: In-solution fluorescence polarization binding of peptides to Scrib PDZ1
Details: Kd value of 100 µM applied as binding cutoff, NB without definition, read-out: Kd (µM) PDZ1
Residues, ends and D or L forms follow the SMILES beside them.

Lab book: Kd of CC[C@H](C)[C@H](NC(=O)[C@@H](NC(=O)[C@H](Cc1ccccc1)NC(=O)[C@H](CCC(=O)O)NC(=O)[C@@H]1CCCN1C(=O)[C@H](CC(N)=O)NC(=O)[C@@H](NC(=O)[C@@H](N)Cc1ccc(O)cc1)[C@@H](C)O)C(C)C)C(=O)N[C@@H](CC(N)=O)C(=O)N[C@H](C(=O)O)C(C)C [PRKCB1] (H-YTNPEFVINV-OH; N-terminus and C-terminus assumed) noted as > 100 µM

Lab book: Kd of CC[C@H](C)[C@H](NC(=O)[C@@H]1CCCN1C(=O)[C@@H](NC(=O)CNC(=O)[C@@H](NC(=O)[C@@H](NC(=O)[C@H](CC(N)=O)NC(=O)[C@@H](NC(=O)[C@H](CCC(N)=O)NC(=O)[C@@H](N)CC(=O)O)C(C)C)[C@@H](C)O)C(C)C)[C@@H](C)CC)C(=O)O [EPHA2] (H-DQVNTVGIPI-OH; N-terminus and C-terminus assumed) noted as > 100 µM

Lab book: Kd of CC[C@H](C)[C@H](NC(=O)[C@H](CC(=O)O)NC(=O)[C@H](CC(N)=O)NC(=O)[C@H](CC(C)C)NC(=O)[C@H](C)NC(=O)[C@H](CC(N)=O)NC(=O)[C@@H](N)CC(=O)O)C(=O)N[C@H](C(=O)N[C@@H](CO)C(=O)N[C@@H](CC(C)C)C(=O)O)[C@@H](C)O [TPM2] (H-DNALNDITSL-OH) noted as > 100 µM

Lab book: Kd of CC[C@H](C)[C@H](NC(=O)CNC(=O)[C@@H](NC(=O)CNC(=O)[C@H](Cc1c[nH]cn1)NC(=O)[C@H](CC(C)C)NC(=O)[C@H](Cc1c[nH]cn1)NC(=O)[C@@H](N)CC(C)C)[C@@H](C)O)C(=O)N[C@@H](CCC(N)=O)C(=O)N[C@H](C(=O)O)C(C)C [EPHA7] (H-LHLHGTGIQV-OH; N-terminus and C-terminus assumed) noted as > 100 µM

Lab book: Kd of CC(C)C[C@H](NC(=O)[C@@H](NC(=O)[C@@H](NC(=O)[C@H](CO)NC(=O)[C@@H]1CCCN1C(=O)[C@H](CC(C)C)NC(=O)[C@H](CCCCN)NC(=O)[C@H](CCCNC(=N)N)NC(=O)[C@@H](NC(=O)[C@@H](N)CCCNC(=N)N)C(C)C)[C@@H](C)O)[C@@H](C)O)C(=O)O [RPS6KA1] (H-RVRKLPSTTL-OH) noted as > 100 µM

Lab book: Kd of CC[C@H](C)[C@H](NC(=O)[C@@H](NC(=O)[C@H](CCC(=O)O)NC(=O)[C@H](CO)NC(=O)[C@@H]1CCCN1C(=O)[C@H](CCC(N)=O)NC(=O)[C@H](C)NC(=O)[C@H](CO)NC(=O)[C@@H](N)CO)[C@@H](C)O)C(=O)N[C@@H](CC(C)C)C(=O)O [ZNF654] (H-SSAQPSETIL-OH) noted as > 100 µM
